These entries and their values trace back to patent US20030162777A1.

Target: human 5HT1A-serotonergic receptor (Homo sapiens, UniProt P08908)
Construct: cell membranes used
Sequence (P08908 1-422): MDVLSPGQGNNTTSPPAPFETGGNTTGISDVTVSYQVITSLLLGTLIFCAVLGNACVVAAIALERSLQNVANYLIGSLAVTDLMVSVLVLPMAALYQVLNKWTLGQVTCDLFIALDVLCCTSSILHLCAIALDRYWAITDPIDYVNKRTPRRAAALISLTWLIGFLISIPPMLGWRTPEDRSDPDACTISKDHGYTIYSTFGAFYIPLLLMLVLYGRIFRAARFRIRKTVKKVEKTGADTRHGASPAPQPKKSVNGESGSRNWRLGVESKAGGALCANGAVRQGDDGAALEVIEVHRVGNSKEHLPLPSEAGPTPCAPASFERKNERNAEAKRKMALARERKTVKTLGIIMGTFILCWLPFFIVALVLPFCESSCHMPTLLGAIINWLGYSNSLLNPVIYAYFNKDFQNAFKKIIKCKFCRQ
Assay: Radioligand binding to recombinant 5-HT1A receptors
Conditions: [3H]8-OH-DPAT 1 nM, membranes of HeLa cells with human 5-HT1A receptor; Ki from IC50 by Cheng & Prusoff; read-out: Binding affinity for 5HT1A receptors, Ki
So I've got a bunch of compounds here, and I need their Ki values.
Quick note: number first, unit second.

Field: Ki. Fill in for each record below.
1. Cc1cccc(N2CCN(CC3CCc4ccccc4N3C(=O)C3CCCCC3)CC2)n1 (stereo not shown)
2. CC(C)NC(=O)N1c2ccccc2CCC1CN1CCN(c2cccc3[nH]ccc23)CC1 (stereo not shown)
3. O=C(C1CCCCC1)N1c2ccccc2CCC1CN1CCN(c2cc(Cl)ccc2F)CC1 (stereo not shown)
4. CC(C)(C)NC(=O)N1c2ccccc2CCC1CN1CCN(c2nccc3ccccc23)CC1 (stereo not shown)

Out:
["5.4 nM", "36 nM", "8.1 nM", "27.7 nM"]

----------
Target: human 5HT1A-serotonergic receptor (Homo sapiens)
Construct: cell membranes used
Sequence (P08908 1-422): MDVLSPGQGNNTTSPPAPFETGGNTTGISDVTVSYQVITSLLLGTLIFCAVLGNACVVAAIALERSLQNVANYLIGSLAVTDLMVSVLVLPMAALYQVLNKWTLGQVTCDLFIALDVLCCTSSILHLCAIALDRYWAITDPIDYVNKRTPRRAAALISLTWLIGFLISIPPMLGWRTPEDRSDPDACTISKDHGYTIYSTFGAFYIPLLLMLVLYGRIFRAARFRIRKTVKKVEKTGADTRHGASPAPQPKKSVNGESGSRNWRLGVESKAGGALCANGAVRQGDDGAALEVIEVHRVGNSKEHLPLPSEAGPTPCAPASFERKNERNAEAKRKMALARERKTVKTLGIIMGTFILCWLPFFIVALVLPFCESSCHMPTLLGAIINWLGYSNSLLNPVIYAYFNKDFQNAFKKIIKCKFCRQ
Assay: Radioligand binding to recombinant 5-HT1A receptors
Conditions: [3H]8-OH-DPAT 1 nM, membranes of HeLa cells with human 5-HT1A receptor; Ki from IC50 by Cheng & Prusoff; read-out: Binding affinity for 5HT1A receptors, Ki
Method: Genomic clone G-21 coding for the human 5HT1A-serotonergic receptor was stably transfected in a human cell line (HeLa). HeLa cells were grown as monolayers in Dulbecco's modified Eagle medium (DMEM), containing 10% foetal bovine serum, gentamicin ([…]) and 5% carbon dioxide, at 37° C. The cells were detached from the growth flask at 95% confluence by a cell scraper and were lysed in cold 5 mM Tris and 5 mM EDTA buffer (pH 7.4). […] Non-specific binding was determined in the presence of 10 μM 5-HT. […]
So I've got a bunch of compounds here, and I need their pKi values.
Numbers only, as −log10 of the molar value.

Field: pKi. Fill in for each record below.
1. CC(=O)N1CCC(C(=O)N2c3ccccc3CCC2CN2CCN(c3cccc4c3OCCO4)CC2)CC1 (stereo not drawn) [Example 76A15]
2. O=S(=O)(c1ccccc1)N1c2ccccc2CCC1CN1CCN(c2cccc3[nH]ccc23)CC1 (stereo not drawn) [Example 70A]
3. COc1ccc(C(=O)N2c3cccc(Cl)c3CCC2CN2CCN(c3ccc(F)cc3OC)CC2)cc1 (stereo not drawn) [Example 56]

Out:
8.09
8.11
8.44

Field: pKi. Fill in for each record below.
1. COc1cc(F)ccc1N1CCN(CC2CCc3cc(C)ccc3N2C(=O)CC2CCCCC2)CC1 (stereo not drawn) [Example 73A6]
2. O=C(C1CCCCC1)N1c2ccccc2CCC1CN1CCN(c2ccc(Br)c3[nH]ccc23)CC1 (stereo not drawn) [Example 35A32]
3. COc1cc(F)ccc1N1CCN(CC2CCc3cc(-c4c(C)noc4C)ccc3N2C(=O)C2CCCCC2)CC1 (stereo not drawn) [Example 64]

Out:
7.74
7.70
7.62

----------
So I've got a bunch of compounds here, and I need their pKi values.
Molecular target: human 5HT1A-serotonergic receptor (Homo sapiens, UniProt P08908)
Construct: cell membranes used
Experiment: Radioligand binding to recombinant 5-HT1A receptors
Conditions: [3H]8-OH-DPAT 1 nM, membranes of HeLa cells with human 5-HT1A receptor; Ki from IC50 by Cheng & Prusoff; read-out: Binding affinity for 5HT1A receptors, Ki
Experimental: Genomic clone G-21 coding for the human 5HT1A-serotonergic receptor was stably transfected in a human cell line (HeLa). HeLa cells were grown as monolayers in Dulbecco's modified Eagle medium (DMEM), containing 10% foetal bovine serum, gentamicin ([…]) and 5% carbon dioxide, at 37° C. The cells were detached from the growth flask at 95% confluence by a cell scraper and were lysed in cold 5 mM Tris and 5 mM EDTA buffer (pH 7.4). […] Non-specific binding was determined in the presence of 10 μM 5-HT. […]
Give bare numbers, as −log10 of the molar value.

Solved cases below.
COMPOUND	STUDY_SYSTEM	MEASURED_RESULT
COc1cc(F)ccc1N1CCN(CC2CCc3ccc(Cl)cc3N2C(=O)C2CCCCC2)CC1 (stereo not shown)	human 5HT1A-serotonergic receptor (Homo sapiens, UniProt P08908)	8.64
COc1ccccc1OCCN(C)CC1CCc2ccccc2N1C(=O)CC(C)(C)C (stereo not shown)	human 5HT1A-serotonergic receptor (Homo sapiens, UniProt P08908)	7.62
O=C(C1CCCCC1)N1c2ccccc2CCC1CN1CCCC(Cc2ccccc2)C1 (single isomer, unassigned)	human 5HT1A-serotonergic receptor (Homo sapiens, UniProt P08908)	7.34

In: State the recorded pKi for this entry: O=C(Nc1ccccc1)N1c2ccccc2CCC1CN1CCN(c2cccc3[nH]ccc23)CC1 (stereo not shown)
Out: 7.89

----------
Target: human 5HT1A-serotonergic receptor (Homo sapiens)
Construct: cell membranes used
Assay: Radioligand binding to recombinant 5-HT1A receptors
Conditions: [3H]8-OH-DPAT 1 nM, membranes of HeLa cells with human 5-HT1A receptor; Ki from IC50 by Cheng & Prusoff; read-out: Binding affinity for 5HT1A receptors, Ki
Description: Genomic clone G-21 coding for the human 5HT1A-serotonergic receptor was stably transfected in a human cell line (HeLa). HeLa cells were grown as monolayers in Dulbecco's modified Eagle medium (DMEM), containing 10% foetal bovine serum, gentamicin ([…]) and 5% carbon dioxide, at 37° C. The cells were detached from the growth flask at 95% confluence by a cell scraper and were lysed in cold 5 mM Tris and 5 mM EDTA buffer (pH 7.4). […] Non-specific binding was determined in the presence of 10 μM 5-HT. […]
EXPERIMENTAL_ENDPOINT: Ki (nM)
Numbers only, in nM.

Field: Ki. Fill in for each record below.
1. N#Cc1ccc(C(=O)N2c3ccccc3CCC2CN2CCN(c3cccc4[nH]ccc34)CC2)cc1 (stereo not drawn)
2. O=C(c1ccc[nH]1)N1c2ccccc2CCC1CN1CCN(c2cccc3[nH]ccc23)CC1 (stereo not drawn) [Example 68A]
3. O=C(CC1CC1)N1c2ccccc2CCC1CN1CCN(c2nccc3ccccc23)CC1 (stereo not drawn)
4. N#Cc1ccccc1N1CCN(CC2CCc3ccccc3N2C(=O)C2CCCCC2)CC1 (stereo not drawn)
5. Cc1cccc(N2CCN(CC3CCc4ccccc4N3C(=O)C3CCCCC3)CC2)c1 (stereo not drawn)
6. O=C(c1ccc(Cl)cc1)N1c2ccccc2CCC1CN1CCN(c2cccc3[nH]ccc23)CC1 (stereo not drawn)
7. Cc1ccccc1NC(=O)N1c2ccccc2CCC1CN1CCN(c2cccc3c2OCCO3)CC1 (stereo not drawn)
8. COc1cccc(N2CCN(CC3CCc4ccccc4N3C(=O)C3CCCCC3)CC2)c1 (stereo not drawn)

Out:
1. 7.1
2. 9.2
3. 10.1
4. 7.8
5. 10.9
6. 4
7. 8
8. 15.3

Field: Ki. Fill in for each record below.
1. COc1cc(F)ccc1N1CCN(CC2CCc3ccccc3N2C(=O)CC(C)C)CC1 (stereo not drawn) [Example 74A]
2. O=C(CCOc1ccccc1)N1c2ccccc2CCC1CN1CCN(c2cccc3[nH]ccc23)CC1 (stereo not drawn)
3. CC(C)OCCC(=O)N1c2ccccc2CCC1CN1CCN(c2cccc3[nH]ccc23)CC1 (stereo not drawn)
4. O=C(C1CCCCC1)N1c2ccc(OC(F)(F)F)cc2CCC1CN1CCN(c2cccc3[nH]ccc23)CC1 (stereo not drawn)

Out:
1. 17.6
2. 19.7
3. 47.5
4. 47.9

Field: Ki. Fill in for each record below.
1. O=C(C1CCCCC1)N1c2ccc(Br)cc2CCC1CN1CCN(c2cccc3[nH]ccc23)CC1 (stereo not drawn)
2. COc1ccc(C(=O)N2c3ccccc3CCC2CN2CCN(c3nccc4ccccc34)CC2)cc1 (stereo not drawn)
3. O=C(c1ccccc1Cl)N1c2ccccc2CCC1CN1CCN(c2cccc3[nH]ccc23)CC1 (stereo not drawn)
4. Cc1ccccc1C1CCN(CC2CCc3ccccc3N2C(=O)C2CCCCC2)CC1 (stereo not drawn)
5. O=C(C1CCCCC1)N1c2ccccc2CCC1CN1CCN(c2ccnc3ccccc23)CC1 (stereo not drawn)

Out:
1. 18.9
2. 2.6
3. 4.7
4. 10.1
5. 10
